# Test system: NCI-H522 lung
# protocol: NCI tumour cell line growth inhibition, 48 h; in the data active = GI50 below about 0.43 µM; inactive = the rest
Labels: 1 (yes) = active, 0 (no) = inactive

- mol_smiles: "COc1cccc2c1-c1ccccc1C2=O"
  group: "1 (yes)"
- mol_smiles: "CC(=O)[CH-]C(C)=O.CC(=O)[CH-]C(C)=O.[CH2-]CCCCCCC.[CH2-]CCCCCCC.[Sn+4]"
  group: "0 (no)"
- mol_smiles: "O=C(C[Si](CC(=O)c1cccc(C(F)(F)F)c1)CC(=O)c1cccc(C(F)(F)F)c1)c1cccc(C(F)(F)F)c1"
  group: "0 (no)"
- mol_smiles: "C[C@@H](O)[C@H]1C(=O)N2C(C(=O)O)=C(SCCN=CN)C[C@H]12"
  group: "0 (no)"
- mol_smiles: "O=C(Nc1cccc(-c2cccc(F)c2)c1)C1CCN(Cc2cccc3cccnc23)CC1"
  group: "0 (no)"
